Quick reference: pIC50 of the listed items.
Tested on: Sodium- and chloride-dependent GABA transporter 2 (Mus musculus)
Assay: Inhibition of [3H]GABA uptake at GAT2 expressed in HEK cells
Details: HEK293
Please give the numeric answer without any surrounding text.

Some solved cases for reference:
O=C(NCc1ccc(F)cc1)C(CCO)N1CCN(C(c2ccc(F)cc2)c2ccc(F)cc2)CC1 (racemic): 4.13
O=C(NCc1ccccc1Cl)C(CCO)N1CCN(C(c2ccc(F)cc2)c2ccc(F)cc2)CC1 (racemic): 4.17
O=C(NCc1ccc(Cl)cc1)C(CCO)N1CCN(C(c2ccc(F)cc2)c2ccc(F)cc2)CC1 (racemic): 4.35
O=C(NCc1ccc(Cl)cc1)C(CCO)N1CCN(C(c2ccccc2)c2ccccc2)CC1 (racemic): 4.56
Cc1ccc(CNC(=O)C(CCO)N2CCN(C(c3ccc(F)cc3)c3ccc(F)cc3)CC2)cc1 (racemic): 4.44
O=C(NCc1ccccc1)C(CCO)N1CCN(C(c2ccc(F)cc2)c2ccc(F)cc2)CC1 (racemic): 4.33

Query O=C(NCCc1ccccc1)C(CCO)N1CCN(C(c2ccc(F)cc2)c2ccc(F)cc2)CC1 (racemic) yields pIC50 of 4.43

The compound O=C(NCc1ccccc1F)C(CCO)N1CCN(C(c2ccccc2)c2ccccc2)CC1 (racemic) showed pIC50 equal to 4.33

// pIC50 value for O=C(NCc1ccccc1)C(CCO)N1CCN(C(c2ccccc2)c2ccccc2)CC1 (racemic) : 4.47

----------
Test system: Sodium- and chloride-dependent GABA transporter 3 (Mus musculus)
Assay: Inhibition of [3H]GABA uptake at GAT3 expressed in HEK cells at 100 uM
Conditions: HEK293
PARAMETER: inhibition (%)
Numbers only; they are read as %.

O=C(NCc1ccccc1)C(CCO)N1CCN(C(c2ccccc2)c2ccccc2)CC1 (racemic): 46
O=C(NCCc1ccccc1)C(CCO)N1CCN(C(c2ccccc2)c2ccccc2)CC1 (racemic): 80
O=C(NCc1ccccc1Cl)C(CCO)N1CCN(C(c2ccccc2)c2ccccc2)CC1 (racemic): 73
NC(=O)C(CCO)N1CCN(C(c2ccccc2)c2ccccc2)CC1 (racemic): 83

# inhibition (compound: COc1ccc(CNC(=O)C(CCO)N2CCN(C(c3ccccc3)c3ccccc3)CC2)cc1 (racemic) ) is 61

----------
Molecular target: Sodium- and chloride-dependent GABA transporter 1 (Mus musculus)
Test: Inhibition of [3H]GABA uptake at GAT1 expressed in HEK cells
Set-up: concentration or dose not given beside the values
Conditions: HEK293; concentration not given here
// inhibition lookup, one value per entry
Supply the numeric figure in %, leaving out any unit text.

Solved cases below.
O=C(NCc1ccccc1)C(CCO)N1CCNCC1 (racemic): 63
O=C(NCc1ccc(Cl)cc1)C(CCO)N1CCNCC1 (racemic): 79
O=C(NCc1ccccc1)C(CCO)N1CCC(Cc2ccccc2)CC1 (racemic): 75
NC(=O)C(CCO)N1CCNCC1 (racemic): 84
O=C(NCCc1ccccc1)C(CCO)N1CCN(C(c2ccc(F)cc2)c2ccc(F)cc2)CC1 (racemic): 69

The molecule listed as O=C(NCc1ccccc1)C(CCO)N1CCOCC1 (racemic) shows inhibition equal to 113

Data point: NC(=O)C(CCO)N1CCN(C(c2ccc(F)cc2)c2ccc(F)cc2)CC1 (racemic) ; inhibition = 66

Query COc1ccc(CNC(=O)C(CCO)N2CCN(C(c3ccc(F)cc3)c3ccc(F)cc3)CC2)cc1 (racemic) yields inhibition of 93

Per the record, O=C(NCc1ccccc1F)C(CCO)N1CCN(C(c2ccc(F)cc2)c2ccc(F)cc2)CC1 (racemic) has inhibition of 97

----------
Target: Sodium- and chloride-dependent GABA transporter 1 (Mus musculus) (UniProt P31648)
Test: Inhibition of [3H]GABA uptake at GAT1 expressed in HEK cells
Settings: HEK293
Below, each entry is listed with its recorded pIC50.
Give the value as a plain number.

Here is how some compounds turned out for pIC50.
O=C(NCc1ccccc1)C(CCO)N1CCN(C(c2ccc(F)cc2)c2ccc(F)cc2)CC1 (racemic): 4.19
O=C(NCc1ccccc1)C(CCO)N1CCN(C(c2ccccc2)c2ccccc2)CC1 (racemic): 4.66
O=C(NCc1ccccc1Cl)C(CCO)N1CCN(C(c2ccc(F)cc2)c2ccc(F)cc2)CC1 (racemic): 4.2

Moving on to the next compound.
Per the record, O=C(NCc1ccc(F)cc1)C(CCO)N1CCN(C(c2ccccc2)c2ccccc2)CC1 (racemic) has pIC50 of 4.84

----------
Measured inhibition of individual entries
Tested on: Sodium- and chloride-dependent GABA transporter 2 (Mus musculus)
Assay: Inhibition of [3H]GABA uptake at GAT2 expressed in HEK cells at 100 uM
Conditions: HEK293
Give the quantity in %, number only.

COc1ccc(CNC(=O)C(CCO)N2CCN(C(c3ccccc3)c3ccccc3)CC2)cc1 (racemic): 78
O=C(NCCc1ccccc1)C(CCO)N1CCN(C(c2ccccc2)c2ccccc2)CC1 (racemic): 93
O=C(NCc1ccc(F)cc1)C(CCO)N1CCN(C(c2ccccc2)c2ccccc2)CC1 (racemic): 52

// below: inhibition requested for another compound
Kindly note the recorded inhibition for O=C(NCc1ccccc1Cl)C(CCO)N1CCN(C(c2ccccc2)c2ccccc2)CC1 (racemic) , which is 72

----------
The compounds listed here are annotated with their inhibition.
Biological target: Sodium- and chloride-dependent GABA transporter 1 (Mus musculus)
Assay: Inhibition of NO711 binding to mouse GAT1 by MS-binding assay
Design: concentration or dose not given beside the values
Conditions: concentration not given here
Phrase the answer as number then unit, nothing more needed.

NC(=O)C(CCO)N1CCN(C(c2ccc(F)cc2)c2ccc(F)cc2)CC1 (racemic): 106%
O=C(NCCc1ccccc1)C(CCO)N1CCN(C(c2ccc(F)cc2)c2ccc(F)cc2)CC1 (racemic): 98%
O=C(NCc1ccccc1)C(CCO)N1CCNCC1 (racemic): 76%
O=C(NCc1ccccc1)C(CCO)N1CCC(Cc2ccccc2)CC1 (racemic): 86%
COc1ccc(CNC(=O)C(CCO)N2CCN(C(c3ccc(F)cc3)c3ccc(F)cc3)CC2)cc1 (racemic): 101%

Result for O=C(NCc1ccccc1)C(CCO)N1CCOCC1 (racemic) , tested on Sodium- and chloride-dependent GABA transporter 1 (Mus musculus), inhibition: 95%

----------
pIC50 listing for selected compounds.
Molecular target: UniProt:P31648
Experiment: Inhibition of [3H]GABA uptake at GAT1 expressed in HEK cells
Details: HEK293

// solved cases for pIC50 follow
O=C(NCc1ccccc1F)C(CCO)N1CCN(C(c2ccccc2)c2ccccc2)CC1 (racemic): 4.48
O=C(NCc1ccc(Cl)cc1)C(CCO)N1CCN(C(c2ccc(F)cc2)c2ccc(F)cc2)CC1 (racemic): 4.14
Cc1ccc(CNC(=O)C(CCO)N2CCN(C(c3ccc(F)cc3)c3ccc(F)cc3)CC2)cc1 (racemic): 4.23
O=C(NCc1ccc(F)cc1)C(CCO)N1CCN(C(c2ccc(F)cc2)c2ccc(F)cc2)CC1 (racemic): 4.03

GET /values?item= O=C(NCc1ccc(Cl)cc1)C(CCO)N1CCN(C(c2ccccc2)c2ccccc2)CC1 (racemic) &system= UniProt:P31648 returns pIC50: 4.88

----------
System: Sodium- and chloride-dependent GABA transporter 2 (Mus musculus)
Assay: Inhibition of [3H]GABA uptake at GAT2 expressed in HEK cells
Set-up: concentration or dose not given beside the values
Conditions: HEK293; concentration not given here
PARAMETER: inhibition (%)
Value expressed in %; do not type the unit.

Some solved entries appear below for comparison.
O=C(NCc1ccccc1)C(CCO)N1CCNCC1 (racemic): 98
O=C(NCc1ccccc1)C(CCO)N1CCC(Cc2ccccc2)CC1 (racemic): 49
NC(=O)C(CCO)N1CCN(C(c2ccc(F)cc2)c2ccc(F)cc2)CC1 (racemic): 84
NC(=O)C(CCO)N1CCNCC1 (racemic): 110

// inhibition lookup, molecule = O=C(NCc1ccc(Cl)cc1)C(CCO)N1CCNCC1 (racemic) , result: 98

Field inhibition (entry O=C(NCc1ccccc1)C(CCO)N1CCOCC1 (racemic) ) reads 98

# inhibition (molecule: COc1ccc(CNC(=O)C(CCO)N2CCN(C(c3ccc(F)cc3)c3ccc(F)cc3)CC2)cc1 (racemic) ) is 65

Field inhibition (entry O=C(NCc1ccccc1F)C(CCO)N1CCN(C(c2ccc(F)cc2)c2ccc(F)cc2)CC1 (racemic) ) reads 65

----------
Molecular target: Sodium- and chloride-dependent GABA transporter 1 (Mus musculus)
Assay: Remaining NO711 binding to mouse GAT1 by MS-binding assay
PARAMETER: remaining binding (%)
The reply should contain only the number, in %.

Use the examples below as a reference point.
O=C(NCc1ccccc1F)C(CCO)N1CCN(C(c2ccc(F)cc2)c2ccc(F)cc2)CC1 (racemic): 92
NC(=O)C(CCO)N1CCN(C(c2ccccc2)c2ccccc2)CC1 (racemic): 98
Cc1ccc(CNC(=O)C(CCO)N2CCN(C(c3ccccc3)c3ccccc3)CC2)cc1 (racemic): 61

Consider the additional compound presented here.
The recorded remaining binding for O=C(NCc1ccc(F)cc1)C(CCO)N1CCN(C(c2ccc(F)cc2)c2ccc(F)cc2)CC1 (racemic) is 75
